Entries and their IC50
assay_target: EGFR (L858R & T790M) (Homo sapiens, UniProt P00533, L858R/T790M)
Construct: GST
Sequence (P00533 25-1210 T790M/L858R): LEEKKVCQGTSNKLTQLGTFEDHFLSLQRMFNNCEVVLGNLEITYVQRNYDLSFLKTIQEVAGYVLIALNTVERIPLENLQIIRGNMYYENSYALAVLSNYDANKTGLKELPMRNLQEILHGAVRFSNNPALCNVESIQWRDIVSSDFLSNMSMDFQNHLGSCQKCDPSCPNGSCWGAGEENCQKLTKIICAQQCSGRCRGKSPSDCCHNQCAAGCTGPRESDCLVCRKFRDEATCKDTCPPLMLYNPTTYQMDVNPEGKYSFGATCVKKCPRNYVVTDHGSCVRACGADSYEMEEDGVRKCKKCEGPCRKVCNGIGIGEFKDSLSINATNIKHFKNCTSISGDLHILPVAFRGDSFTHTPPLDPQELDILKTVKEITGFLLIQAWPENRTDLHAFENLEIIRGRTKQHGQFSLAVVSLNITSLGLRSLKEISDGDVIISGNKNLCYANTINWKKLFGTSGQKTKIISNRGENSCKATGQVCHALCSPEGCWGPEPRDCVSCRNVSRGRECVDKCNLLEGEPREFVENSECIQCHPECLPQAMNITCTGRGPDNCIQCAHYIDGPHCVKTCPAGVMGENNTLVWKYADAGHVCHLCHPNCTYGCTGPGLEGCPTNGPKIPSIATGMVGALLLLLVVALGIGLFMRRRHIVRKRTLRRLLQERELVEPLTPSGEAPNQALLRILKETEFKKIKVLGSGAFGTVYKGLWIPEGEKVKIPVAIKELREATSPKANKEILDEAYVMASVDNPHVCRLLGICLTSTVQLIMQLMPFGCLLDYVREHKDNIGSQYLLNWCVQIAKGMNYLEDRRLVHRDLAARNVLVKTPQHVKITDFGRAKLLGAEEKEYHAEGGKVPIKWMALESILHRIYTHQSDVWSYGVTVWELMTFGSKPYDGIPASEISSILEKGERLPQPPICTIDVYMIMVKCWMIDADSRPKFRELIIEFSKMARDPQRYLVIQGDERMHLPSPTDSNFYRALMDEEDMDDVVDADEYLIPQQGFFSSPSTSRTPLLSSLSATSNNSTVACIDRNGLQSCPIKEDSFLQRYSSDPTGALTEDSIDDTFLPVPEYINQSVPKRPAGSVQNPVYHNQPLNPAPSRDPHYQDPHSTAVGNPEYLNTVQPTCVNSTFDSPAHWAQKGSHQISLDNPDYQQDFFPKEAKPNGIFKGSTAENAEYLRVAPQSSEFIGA
test_details: EGFR (L858R & T790M) inhibition assay, HTRF method
measurement_context: biochemical HTRF; EGFR (T790M/L858R) 2.5 nM, ATP 5 μM, 60 min room temperature

Use these answered entries as a reference point.
molecule | result
C=CC(=O)NC1CCCC(Nc2nc(Nc3cc(C)ns3)ncc2Cl)C1 (stereo not shown) [Compound I-114] | 10 to 100 nM
C=CC(=O)Nc1cccc(Nc2nc(Nc3cnn(C4CC5CCC(C4)N5C)c3)ncc2Cl)c1 (stereo not shown) [Compound I-48] | 10 to 100 nM
CN(C)C/C=C/C(=O)NC1CCCC(Oc2nc(Nc3cnn(C)c3)ncc2Cl)C1 (single isomer, unassigned) [I-91 (Isomer 2)] | > 100 nM

Sample C=CC(=O)Nc1cccc(Oc2nc(Nc3c(C)nn(C)c3C)ncc2Cl)c1 [Compound I-84] ; IC50 observed: > 100 nM

Briefly, IC50 measured for C=CC(=O)N1CCCC(Nc2nc(Nc3cnn(C)c3)ncc2Cl)C1 (single isomer, unassigned) [II-2 (Enantiomer 2)] : > 100 nM

// field: IC50; key: C=CC(=O)Nc1cccc(N(C)c2nc(Nc3cnn(C4CCN(C)CC4)c3)ncc2Cl)c1 [Compound I-72] ; value = 10 to 100 nM

Quick note, IC50 for C=CC(=O)Nc1cccc(Nc2nc(Nc3cnn(C4CCN(C)CC4)c3)ncc2F)c1 [Compound I-18] landed at 10 to 100 nM

====

assay_target: EGFR (L858R & T790M) (Homo sapiens, UniProt P00533, L858R/T790M)
Construct: GST
test_details: EGFR (L858R & T790M) inhibition assay, HTRF method
measurement_context: biochemical HTRF; EGFR (T790M/L858R) 2.5 nM, ATP 5 μM, 60 min room temperature
Protocol: Example 25: Biological Activity: EGFR T790M Assay Protocol The objective of the experiment is to find the IC50 for the compounds using HTRF method. Reagents for Enzyme Assay: 1. Enzyme Assay Buffer: 60 mM HEPES (pH 7.4), 50 mM NaCl, 20 mM MgCl2, 5 mM MnCl2, filter using 0.2 µm pore size, store at 4° C. Supplements (add fresh to the enzyme buffer): Make 1M DTT stock, 5% BSA stock and 0.1M Na3OV4 stored at 4° C. […] • 1. […] Take the reading in Pherastar (ext 337 nm, em 665 & 620 nm). • 9. […]
pIC50: −log10 of the molar value.
Reported values of pIC50 for individual entries

molecule | endpoint | result
CN1CCC(n2cc(Nc3ncc(Cl)c(Nc4cccc(NC(=O)C=C5CCCC5)c4)n3)cn2)CC1 | pIC50 | < 7.00

Note to self: pIC50 recorded for C=CC(=O)NC1CCCC(Oc2nc(Nc3cnn(C)c3)ncc2Cl)C1 (single isomer, unassigned) [I-89 (Isomer 2)] was < 7.00

Reported pIC50 of C=CC(=O)Nc1ccc(F)c(Nc2nc(Nc3cn(C)nc3Cl)ncc2Cl)c1 : > 8.00

====

assay_target: EGFR (L858R & T790M) (Homo sapiens, UniProt P00533, L858R/T790M)
Construct: GST
test_details: EGFR (L858R & T790M) inhibition assay, HTRF method
measurement_context: biochemical HTRF; EGFR (T790M/L858R) 2.5 nM, ATP 5 μM, 60 min room temperature
pIC50: −log10 of the molar value.
Recorded pIC50, one value per entry.

Worked examples follow.
molecule | assay_target | pIC50
C=CC(=O)N1CCC(Nc2nc(Nc3cnn(C)c3)ncc2Cl)C1 (racemic) [II-7 (Racemic)] | EGFR (L858R & T790M) (Homo sapiens, UniProt P00533, L858R/T790M) | < 7.00
C=CC(=O)N1CCC(Oc2nc(Nc3cnn(C)c3)ncc2Cl)C1 (single isomer, unassigned) [II-11 (Enantiomer 2)] | EGFR (L858R & T790M) (Homo sapiens, UniProt P00533, L858R/T790M) | < 7.00
Cc1cc(Nc2ncc(Cl)c(NC3CCCC(NC(=O)/C=C/CN(C)C)C3)n2)sn1 (centres unmarked) | EGFR (L858R & T790M) (Homo sapiens, UniProt P00533, L858R/T790M) | < 7.00

Cn1cc(Nc2ncc(Cl)c(Nc3cccc(N4C(=O)C=CC4=O)c3)n2)cn1 has a reported pIC50 of < 7.00

For record CN1CCC(n2cc(Nc3ncc(Cl)c(Nc4ccc(F)c(NC(=O)C=C5CCCCC5)c4)n3)cn2)CC1 the listed pIC50 is < 7.00

pIC50 in this record for C=CC(=O)Nc1cccc(Oc2nc(Nc3cnn(C4CCN(C)CC4)c3)ncc2Cl)c1 : 7.00 to 8.00

Note to self: pIC50 recorded for CN1CCC(n2cc(Nc3ncc(Cl)c(Nc4cccc(NC(=O)C=C5CCCCC5)c4)n3)cn2)CC1 was < 7.00

For reference, reported pIC50 for C/C=C/C(=O)Nc1cccc(Nc2nc(Nc3cnn(C4CCN(C)CC4)c3)ncc2Cl)c1 stands at < 7.00

pIC50 for CN(C)C/C=C/C(=O)NC1CCCC(Oc2nc(Nc3cnn(C)c3)ncc2Cl)C1 (single isomer, unassigned) [I-90 (Isomer 1)] is < 7.00
